// values below are reported AUC
assay: in vivo; settings: female, Balb/c, mouse, po, 30 mg/kg
Value expressed in ng·h/mL; do not type the unit.

O=C(NCCc1cc(Br)c(O)c(Br)c1)C1(c2ccc(F)cc2)CCC1
259

Below: the item to evaluate.
Asked: Item O=C(NCCc1cc(Br)c(O)c(Br)c1)C1(c2ccccc2)CCC1 : provide AUC
Given back: 58

---

experiment: in vitro; assay type: in vitro ADME, human; details: human, microsomes, pH 7.4, in vitro human unbound microsomal clearance Clint,u
result-type: CLint scaled at 0.5 µM (mL/min/kg)
Value expressed in mL/min/kg; do not type the unit.

Asked: Item O=C(NCCc1cc(Br)c(O)c(Br)c1)C1(c2ccccc2)CCC1 : provide CLint scaled at 0.5 µM
Given back: 593

---

assay: in vitro; format: in vitro ADME, human; settings: human microsomes
result-type: microsomal clearance / stability (in words)

O=C(NCCc1cccc(C(F)(F)F)c1)C1(c2ccccc2)COC1
improved clearance
O=C(NCCc1cc(Br)ccn1)C1(c2ccccc2)CCC1
improved clearance

---

// values below are reported CLint scaled at 0.5 µM
assay: in vitro; assay type: in vitro ADME, human; conditions: human, microsomes, pH 7.4, human Clint
Value expressed in L/h/kg; do not type the unit.

Some entries whose results are on file:
Cc1ccccc1C1(C(=O)NCCc2cccc(C(F)(F)F)c2)CCC1
883
O=C(NCCc1cccc(Br)c1)C1(c2ccc(F)cc2)CCC1
235

Below: the item to evaluate.
Asked: Item O=C(NCCc1cccc(Br)c1)C1(c2ccccc2)CCC1 : provide CLint scaled at 0.5 µM
Given back: 236

---

// values below are reported IC20 at 72 h
Test: in vitro
Format: cell-based
Details: human
Description: HepG2 cells were seeded at 2000 cells per well in 384-well, black, clear bottom PDL coated plates in MEM medium supplemented with 10% FBS, 2 mM L-glutamine, 1 mM sodium pyruvate and incubated overnight at 37C, 5% CO2. Compounds were added and plates incubated for 72 h. Cell viability was measured using the CyQUANT® reagent and imaging on a ViewLux™ ultraHTS Microplate Imager. The IC20 and IC50 were calculated from dose response curves.
Value expressed in µM; do not type the unit.

Some entries whose results are on file:
Cc1cc(NC2CCCCC2)nc(-n2nc(C)cc2C)n1 [PZP-3]
47
C=CCc1c(C)nc(-c2ccccn2)nc1O [PDPO-1]
2.8
CC(=O)n1cc(Nc2ccccc2O)c2ccccc21 [ACI-2]
30

Asked: Item O=C(c1c(Cl)cccc1Cl)N1COCN(c2ccc(C(F)(F)F)cc2)C1=O [ACU-1] : provide IC20 at 72 h
Given back: 65

Asked: Item NCC(c1ccco1)S(=O)(=O)c1ccccc1 (centres unmarked) [FAS] : provide IC20 at 72 h
Given back: 2

Asked: Item Cc1ccc(-c2nnc(C)c(N3CCCC3)n2)cc1 [PYT] : provide IC20 at 72 h
Given back: 23

Asked: Item COc1ccc(CCNC(=O)C2(c3ccccc3)CCC2)cc1Br [PCB-1] : provide IC20 at 72 h
Given back: 33

Asked: Item Clc1ccc(-c2nc(Cn3ccnc3)cs2)cc1 [AMT-1] : provide IC20 at 72 h
Given back: 34

Asked: Item O=C(Nc1nc2ccccc2s1)NC1C2CC3CC(C2)CC1C3 (centres unmarked) [HBU-1] : provide IC20 at 72 h
Given back: 8.2

Asked: Item CCC(=O)Nc1nc(-c2nc3ccccc3oc2=O)cs1 [BOZ] : provide IC20 at 72 h
Given back: 37
